assay: qHTS Screen of the MIPE 4.0 Collection Against Ewings Sarcoma (EW8) (AID 1259255); conditions: EW8 Ewing sarcoma viability, CellTiter-Glo, 48 h; series mostly up to 45.8 µM; note: nearly all actives have a fitted effect of over 35% in size
Inconclusive results are not listed. Active and inactive are the calls of the source. Calls come from the whole dose curve; as a rule, active = well fitted inhibition curve with a large enough effect; inconclusive = small, poorly fitted or top-dose-only effect; inactive = no such curve, though single readings can be large or run the other way.
Labels: active, inactive

Compound	Answer label
CC(C)N[C@@H]1CCn2c(=O)[nH]c3cccc(c32)[C@@H]1O	active
C[C@@]12OC(=O)[C@]1([C@@H](O)[C@@H]1C=CCCC1)NC(=O)[C@H]2CCCl	active
O=c1cccc2n1CC1CNC[C@H]2C1	inactive
O=C(Oc1ccc([N+](=O)[O-])cc1)N1CCN(Cc2cccc(Oc3ccccc3)c2)CC1	inactive
C[C@]12Cc3cn[nH]c3C[C@@H]1CC[C@@H]1[C@H]2CC[C@@]2(C)[C@H]1CC[C@]2(C)O	active
CO[C@H]1CCC(O[C@H]2C[C@H]([C@]3(C)CC[C@]4(C[C@H](O)[C@@H](C)[C@@H]([C@@H](C)C=C(C)C(=O)[C@H](C)C[C@H](C)C(=O)O)O4)O3)O[C@]3(O[C@@H]([C@H]4O[C@@](O)(CO)[C@H](C)C[C@H]4C)C[C@H]3C)[C@H]2C)O[C@H]1C (stereo partly drawn)	active
C[C@](O)(COc1ccc(C#N)cc1)C(=O)Nc1ccc(C#N)c(C(F)(F)F)c1	inactive
O=C1CCC[C@@H]2[C@H]3CCCN4CCC[C@@H](CN12)[C@@H]34	inactive

* * *

assay: qHTS of pediatric cancer cell lines to identify multiple opportunities for drug repurposing: Confirmatory screen for SK-N-SH cells (AID 1347129); settings: SK-N-SH neuroblastoma cell viability; series mostly up to 46.1 µM;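 note: cells exposed to compound for 48 h before viability read; nearly all actives have a fitted effect of over 60% in size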
Results filed as inconclusive are left out. The source made the active and inactive calls. Calls follow the shape of the dose curve; as a rule, active = well fitted cell-killing curve with a large enough effect; inconclusive = small, poorly fitted or top-dose-only effect; inactive = flat fitted curve, though single readings scatter.
Labels: active, inactive

Compound	Answer label
O=c1[nH]c2ccc(Cl)cc2c(N[C@@H]2CN3CCC2CC3)c1-c1nc2ccccc2[nH]1	active
COC1=CC(C)=C[C@@H](C)[C@@H](O)[C@@H](C)CC(C)=CC=C[C@H](OC)[C@H]([C@@H](C)[C@@H](O)[C@H](C)[C@@]2(O)C[C@@H](O)[C@H](C)[C@@H](C(C)C)O2)OC1=O	inactive
O=[N+]([O-])c1c(Cl)c(Cl)cc(Cl)c1Cl	inactive
C[C@@]12OC(=O)[C@]1([C@@H](O)[C@@H]1C=CCCC1)NC(=O)[C@H]2CCCl	active
CC=C(C)C(=O)O[C@H]1C(C)=C2[C@@H]3OC(=O)[C@@](C)(O)[C@@]3(O)[C@@H](OC(=O)CCC)C[C@](C)(OC(C)=O)[C@@H]2[C@@H]1OC(=O)CCCCCCC	inactive
CC(C)N[C@@H]1CCn2c(=O)[nH]c3cccc(c32)[C@@H]1O	inactive
CCCN1CCO[C@@H]2c3cc(O)ccc3OC[C@@H]21	inactive
C[C@H]1CCCC=CC2C[C@H](O)C[C@@H]2[C@H](O)C=CC(=O)O1 (stereo partly drawn)	active

* * *

system: CP252; assay: qHTS profiling for inhibitors of Plasmodium falciparum proliferation (AID 504749); note: nearly all actives have a fitted effect of over 60% in size; details: P. falciparum in erythrocytes, SYBR Green DNA, 72 h; series mostly up to 28.7 µM
Inconclusive results are not listed. Activity calls are given as the source filed them. The call rests on the fitted dose curve; in most records, active means well fitted inhibition curve with a large enough effect; inconclusive means small, poorly fitted or top-dose-only effect; inactive means flat fitted curve, though single readings scatter.
Labels: active, inactive

Compound	Answer label
NC(=O)CN1CC(O)CC1=O (configuration not stated)	inactive
CCCCc1ccc(C(=O)O)nc1	inactive
O=C(O)COc1ccccc1	inactive
CC(=O)[O][Hg][c]1ccccc1	active
CCCN1CCC[C@H](c2cccc(O)c2)C1	inactive
C=CCN1CC[C@]23CCCCC2[C@H]1Cc1ccc(O)cc13 (some centres not stated)	inactive
CC(C)NC(C)Cc1ccc(I)cc1 (configuration not stated)	inactive
CCCCCCCCCC(CC)c1ccc(S(=O)(=O)O)cc1 (configuration not stated)	inactive
CN1C2CCC1CC(OC(=O)c1cc(Cl)cc(Cl)c1)C2 (configuration not stated)	inactive
C[C@]12CCC(=O)C(O)=C1CC[C@@H]1[C@H]3CCC(=O)[C@@]3(C)CC[C@@H]12	inactive
c1ccc(C2(c3ccccc3)CC2C2=NCCN2)cc1 (configuration not stated)	inactive
Cc1cc(O)ccc1Cl	inactive
